assay: Solubility test of crystal form A in 9 vehicles (HPLC); type: physicochemical; conditions: thermodynamic from solid; Purified water, 37° C., stirring 24 hrs
endpoint: solubility at 24 h
Hi, when you answer, please include the unit after the number. Thanks!

// recorded solubility at 24 h for CC(C)(Sc1nnc(Br)n1-c1sc(C2CC2)c2c1CCC(F)(F)C2)C(=O)O [crystal form A] : 0.058 mg/mL

###

assay: Plasma pharmacokinetics in male and female SD rats after single intravenous and intragastric administration; format: in vivo; settings: rat, female SD rats, PO 4.0 mg/kg vs IV 2.0 mg/kg
endpoint: bioavailability (%)
Reply numerically in %, unit not repeated.

So for CC(C)(Sc1nnc(Br)n1-c1sc(C2CC2)c2c1CCC(F)(F)C2)C(=O)O , the logged bioavailability turned out to be 86
